Target: Cathepsin L2 (Homo sapiens)
Test: Inhibition of human recombinant cathepsin V expressed in Pichia pastoris
pIC50: −log10 of the molar value.
measure: pIC50

molecule=COc1c(O)c(CC=C(C)C)c(O)c2c(=O)c3c(CC=C(C)C)ccc(O)c3n(C)c12 measuredresult=5.60
molecule=Cn1c2c(O)cccc2c(=O)c2c(O)cc3c(c21)C=CC(C)(C)O3 measuredresult=4.32
molecule="CC(C)=CCc1c(O)cc(O)c2c(=O)c3cccc(O)c3n(C)c12 [GLYCOCITRINE-I]" measuredresult=4.60
molecule="COc1c(OC)c(OC)c2c(c1O)c(=O)c1cccc(O)c1n2C [CITIBRASINE]" measuredresult=5.92
molecule="COc1c(O)c(CC=C(C)C)c(O)c2c(=O)c3cccc(O)c3n(C)c12 [GLYCOCITRINE-IV]" measuredresult=5.66
molecule=CC(C)=CCc1c(O)cc2c(c1O)c(=O)c1c(CC=C(C)C)ccc(O)c1n2C measuredresult=5.41

* * *

Target: Cathepsin L2 (Homo sapiens, UniProt O60911)
Sequence (O60911 whole entry): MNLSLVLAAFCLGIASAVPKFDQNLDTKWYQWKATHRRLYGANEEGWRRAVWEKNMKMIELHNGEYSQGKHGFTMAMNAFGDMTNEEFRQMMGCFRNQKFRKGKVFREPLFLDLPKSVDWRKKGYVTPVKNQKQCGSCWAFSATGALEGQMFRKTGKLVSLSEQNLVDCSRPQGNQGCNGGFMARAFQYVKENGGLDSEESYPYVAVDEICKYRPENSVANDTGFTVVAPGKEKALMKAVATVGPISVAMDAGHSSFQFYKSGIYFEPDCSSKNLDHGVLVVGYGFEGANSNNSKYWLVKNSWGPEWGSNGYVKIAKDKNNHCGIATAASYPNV
Experiment: Inhibition of human recombinant cathepsin V expressed in Pichia pastoris
IC50 values, listed per item
measure: IC50 (µM)

molecule="COc1c(O)c2c(c3c(=O)c4cccc(O)c4n(C)c13)OC(C)(C)C(O)C2 (stereo not given)" measuredresult=2.8
molecule=COc1c2c(c(O)c3c(=O)c4cccc(O)c4n(C)c13)C=CC(C)(C)O2 measuredresult=44
molecule="COc1c2c(c(O)c3c(=O)c4cccc(O)c4n(C)c13)CC(C(C)(C)O)O2 (stereo not given)" measuredresult=5.2
molecule=COc1cc(O)c2c(=O)c3cccc(O)c3n(C)c2c1OC measuredresult=2.2
molecule=COc1c(O)cc(O)c2c(=O)c3cccc(O)c3n(C)c12 measuredresult=10

* * *

Target: Cathepsin L2 (Homo sapiens, UniProt O60911)
Assay: Inhibition of human recombinant cathepsin V expressed in Pichia pastoris by Lineweaver-Burk double-reciprocal plots
Param label: returns fulfilled when Ki < 1 µM, returns not fulfilled otherwise, including exact equality.

molecule=COc1c(O)c(CC=C(C)C)c(O)c2c(=O)c3c(CC=C(C)C)ccc(O)c3n(C)c12 answerlabel=fulfilled
molecule="COc1c(O)c2c(c3c(=O)c4cccc(O)c4n(C)c13)OC(C)(C)C(O)C2 (centres undefined)" answerlabel="not fulfilled"
molecule=CC(C)=CCc1c(O)cc(O)c2c(=O)c3cccc(O)c3n(C)c12 answerlabel="not fulfilled"
molecule=COc1c(OC)c(OC)c2c(c1O)c(=O)c1cccc(O)c1n2C answerlabel=fulfilled
molecule=CC(C)=CCc1c(O)cc2c(c1O)c(=O)c1c(CC=C(C)C)ccc(O)c1n2C answerlabel="not fulfilled"
molecule=COc1c(O)cc(O)c2c(=O)c3cccc(O)c3n(C)c12 answerlabel="not fulfilled"
molecule="COc1c2c(c(O)c3c(=O)c4cccc(O)c4n(C)c13)CC(C(C)(C)O)O2 (centres undefined)" answerlabel="not fulfilled"
molecule=COc1c(O)c(CC=C(C)C)c(O)c2c(=O)c3cccc(O)c3n(C)c12 answerlabel="not fulfilled"
